Tested on: CCRIS mutagenicity, Ames/micronucleus/aberration tests
assay protocol: CCRIS mutagenicity studies
experimental parameters: Test System: UDS HUMAN FIBROBLASTS; Strain/Indicator: THY INCORP (NON-S-PHASE); Metabolic Activation: NONE; Method: LIQUID SCINTILLATION COUNTING
Activity calls are given as the source filed them. How the calls were made is not given here.
measured property: mutagenic call

[[record]]
compound = "CNC(=O)/C=C(\\C)OP(=O)(OC)OC"
measured_property = "mutagenic call"
measured_result = "active; positive"

[[record]]
compound = "ClCc1ccccc1"
measured_property = "mutagenic call"
measured_result = "active; positive"

[[record]]
compound = "O=CC1CO1 (centres undefined)"
measured_property = "mutagenic call"
measured_result = "active; positive"

[[record]]
compound = "CCN(N=O)C(N)=O"
measured_property = "mutagenic call"
measured_result = "active; positive"

